Data origin, for the record: patent US20060014212A1

# Subject of test: anti-A037 antibody (C9 PET)
# Protocol details: peptide competition assay in 6% BSA
Where no end group is shown, it is not given here.
Reported metric: pIC50
Give bare numbers, as −log10 of the molar value.

q: Any idea what its pIC50 is? The binder is CTEHYEEQIEAFK-NH2 [A037 peptide (C9), …-NH2]
a: 9.30
